Target: LXRβ (Homo sapiens)
Construct: Co-transfection expression plasmids, comprising full-length LXRα (pCMX-h LXRα or LXRβ (pCMX-hLXRβ))
Sequence (P55055 whole entry): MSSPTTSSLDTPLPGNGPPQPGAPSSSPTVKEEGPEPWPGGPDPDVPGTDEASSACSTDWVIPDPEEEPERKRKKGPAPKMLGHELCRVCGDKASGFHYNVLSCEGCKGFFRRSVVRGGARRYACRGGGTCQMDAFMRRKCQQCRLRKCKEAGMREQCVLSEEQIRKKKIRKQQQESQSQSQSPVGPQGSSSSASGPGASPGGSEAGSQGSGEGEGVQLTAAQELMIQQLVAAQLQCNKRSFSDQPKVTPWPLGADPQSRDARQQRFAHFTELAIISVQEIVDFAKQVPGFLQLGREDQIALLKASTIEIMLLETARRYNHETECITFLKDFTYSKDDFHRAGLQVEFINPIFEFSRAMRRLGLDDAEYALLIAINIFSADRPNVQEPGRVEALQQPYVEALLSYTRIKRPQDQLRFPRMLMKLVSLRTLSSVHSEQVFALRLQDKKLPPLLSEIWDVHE
Sequence (P19793 whole entry partner): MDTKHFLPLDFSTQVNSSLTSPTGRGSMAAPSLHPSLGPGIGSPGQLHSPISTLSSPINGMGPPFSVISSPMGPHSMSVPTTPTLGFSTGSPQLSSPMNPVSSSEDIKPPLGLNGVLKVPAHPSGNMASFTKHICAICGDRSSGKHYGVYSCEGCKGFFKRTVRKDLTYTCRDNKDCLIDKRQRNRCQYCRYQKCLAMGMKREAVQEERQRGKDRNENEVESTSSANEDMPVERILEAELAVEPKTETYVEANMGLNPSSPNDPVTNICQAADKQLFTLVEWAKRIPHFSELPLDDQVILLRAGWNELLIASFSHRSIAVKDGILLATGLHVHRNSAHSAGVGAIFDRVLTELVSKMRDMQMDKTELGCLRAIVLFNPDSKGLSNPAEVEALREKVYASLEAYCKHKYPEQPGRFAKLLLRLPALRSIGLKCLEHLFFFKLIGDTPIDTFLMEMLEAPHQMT
Experiment: LXR/LXRE co-transfection assay (luciferase reporter) in CV-1 cells, LXRβ
Settings: CV-1 cells transfected with pCMX-hLXRβ and LXREx1-Tk-Luciferase, 20 hours incubation, read-out: LXRbeta agonism EC50
measure: pEC50
Quick note: pEC50 values are minus log10 of concentrations in mol/L.

Here are 5 compounds together with their reported answers.
Cc1nc(-c2ccc(OC(F)(F)F)cc2)c(-c2cc(-c3cc(F)c(CO)c(S(C)(=O)=O)c3)ccc2-n2nc(C(F)(F)F)cc2C)o1 : 7.46
Cc1nc(-c2cc(-c3cccc(S(C)(=O)=O)c3)ccc2-n2nc(C(F)(F)F)cc2Cl)c(-c2ccc3c(c2)OC(F)(F)O3)o1 : 7.54
CNS(=O)(=O)c1cccc(-c2ccc(-c3cc(C(F)(F)F)nn3C)c(-c3oc(C)nc3-c3ccc(OC(F)(F)F)cc3)c2)c1 : 7.23
Cc1nc(-c2ccc3c(c2)OC(F)(F)O3)c(-c2cc(-c3cc(F)c(CO)c(S(C)(=O)=O)c3)ccc2-c2cc(C(F)(F)c3nnco3)nn2C)o1 : 8.15
Cc1nc(-c2ccc(OC(F)F)c(F)c2)c(-c2cc(-c3cc(F)c(CO)c(S(C)(=O)=O)c3)ccc2-c2cc(C(F)(F)CO)nn2C)o1 : 7.52

Query: pEC50; subject: Cc1nc(-c2cc(-c3ccc(CO)c(S(C)(=O)=O)c3)ccc2-n2nc(C(F)(F)F)cc2C)c(-c2ccc(OC(F)F)cc2)o1
7.92

// provenance: patent US9751869B2
